Values from ChEMBL document CHEMBL1649574

Would you kindly list MIC for each of these compounds?
- System: Staphylococcus aureus
- testSummary: Antimicrobial activity against SCCmec type III vancomycin-intermediate Staphylococcus aureus isolate 13b16 by agar dilution method
- Type: functional

compound | MIC
CC[C@H]1OC(=O)[C@H](C)[C@@H](O[C@H]2C[C@@](C)(OC)[C@@H](O)[C@H](C)O2)[C@H](C)[C@@H](O[C@@H]2O[C@H](C)C[C@H](N(C)C)[C@H]2O)[C@](C)(O)C[C@@H](C)C(=O)[C@H](C)[C@@H](O)[C@]1(C)O [ERYTHROMYCIN] | > 256 µg/mL
C[C@H]1COc2c(N3CCN(C)CC3)c(F)cc3c(=O)c(C(=O)O)cn1c23.C[C@H]1COc2c(N3CCN(C)CC3)c(F)cc3c(=O)c(C(=O)O)cn1c23.O [LEVOFLOXACIN] | 32 µg/mL
Nc1nc(/C(=N/O)C(=O)N[C@@H]2C(=O)N3C(C(=O)O)=C(/C=C4\CCN([C@@H]5CCNC5)C4=O)CS[C@H]23)ns1 [CEFTOBIPROLE] | 1 µg/mL
CN(C)c1cc(NC(=O)CNC(C)(C)C)c(O)c2c1C[C@H]1C[C@H]3[C@H](N(C)C)C(O)=C(C(N)=O)C(=O)[C@@]3(O)C(O)=C1C2=O [TIGECYCLINE] | 0.125 µg/mL
CO[C@H]1/C=C/O[C@@]2(C)Oc3c(C)c(O)c4c(O)c(c(/C=N/N5CCN(C)CC5)c(O)c4c3C2=O)NC(=O)/C(C)=C\C=C\[C@H](C)[C@H](O)[C@@H](C)[C@@H](O)[C@@H](C)[C@H](OC(C)=O)[C@@H]1C [RIFAMPIN] | 0.008 µg/mL
Cc1onc(-c2ccccc2)c1C(=O)N[C@@H]1C(=O)N2[C@@H]1SC(C)(C)[C@@H]2C(=O)O [OXACILLIN] | > 64 µg/mL

Kindly review the next compound as well.
Req: Reported MIC, compound CC[C@H]1OC(=O)[C@H](C)[C@@H](O[C@H]2C[C@@](C)(OC)[C@@H](O)[C@H](C)O2)[C@H](C)[C@@H](O[C@@H]2O[C@H](C)C[C@H](N(C)C)[C@H]2O)[C@](C)(OC)C[C@@H](C)C(=O)[C@H](C)[C@@H](O)[C@]1(C)O [CLARITHROMYCIN] : ____
Resp: 16 µg/mL

----------
- System: Staphylococcus aureus
- testSummary: Antimicrobial activity against SCCmec type II vancomycin-intermediate Staphylococcus aureus isolate 4sy39 by agar dilution method
- Assay type: functional
readoutLabel: MIC (µg/mL)
Answers are plain numbers, in µg/mL.

// solved cases for MIC follow
sampleSmiles | MIC [µg/mL]
CO[C@H]1/C=C/O[C@@]2(C)Oc3c(C)c(O)c4c(O)c(c(/C=N/N5CCN(C)CC5)c(O)c4c3C2=O)NC(=O)/C(C)=C\C=C\[C@H](C)[C@H](O)[C@@H](C)[C@@H](O)[C@@H](C)[C@H](OC(C)=O)[C@@H]1C | 0.008
CC[C@H]1OC(=O)[C@H](C)[C@@H](O[C@H]2C[C@@](C)(OC)[C@@H](O)[C@H](C)O2)[C@H](C)[C@@H](O[C@@H]2O[C@H](C)C[C@H](N(C)C)[C@H]2O)[C@](C)(O)C[C@@H](C)C(=O)[C@H](C)[C@@H](O)[C@]1(C)O | 256
CN(C)c1cc(NC(=O)CNC(C)(C)C)c(O)c2c1C[C@H]1C[C@H]3[C@H](N(C)C)C(O)=C(C(N)=O)C(=O)[C@@]3(O)C(O)=C1C2=O | 0.25
CC(=O)NC[C@H]1CN(c2ccc(N3CCOCC3)c(F)c2)C(=O)O1 | 1
C[C@H]1COc2c(N3CCN(C)CC3)c(F)cc3c(=O)c(C(=O)O)cn1c23.C[C@H]1COc2c(N3CCN(C)CC3)c(F)cc3c(=O)c(C(=O)O)cn1c23.O | 16
Cc1onc(-c2ccccc2)c1C(=O)N[C@@H]1C(=O)N2[C@@H]1SC(C)(C)[C@@H]2C(=O)O | 256

Parameters: items (list). Returns: MIC for each item.
1. CC[C@H]1OC(=O)[C@H](C)[C@@H](O[C@H]2C[C@@](C)(OC)[C@@H](O)[C@H](C)O2)[C@H](C)[C@@H](O[C@@H]2O[C@H](C)C[C@H](N(C)C)[C@H]2O)[C@](C)(OC)C[C@@H](C)C(=O)[C@H](C)[C@@H](O)[C@]1(C)O
2. Nc1nc(/C(=N/O)C(=O)N[C@@H]2C(=O)N3C(C(=O)O)=C(/C=C4\CCN([C@@H]5CCNC5)C4=O)CS[C@H]23)ns1

Resp:
[32, 0.5]
